Data origin, for the record: patent US12234221B2

Measured pIC50 values are reported for all entries that follow.
# Study Target: human Nav1.8 (hNav1.8) ion channel (Homo sapiens)
# Construct: expressed in transfected cells; host or cells: HEK293
# Sequence (Q9Y5Y9 whole entry): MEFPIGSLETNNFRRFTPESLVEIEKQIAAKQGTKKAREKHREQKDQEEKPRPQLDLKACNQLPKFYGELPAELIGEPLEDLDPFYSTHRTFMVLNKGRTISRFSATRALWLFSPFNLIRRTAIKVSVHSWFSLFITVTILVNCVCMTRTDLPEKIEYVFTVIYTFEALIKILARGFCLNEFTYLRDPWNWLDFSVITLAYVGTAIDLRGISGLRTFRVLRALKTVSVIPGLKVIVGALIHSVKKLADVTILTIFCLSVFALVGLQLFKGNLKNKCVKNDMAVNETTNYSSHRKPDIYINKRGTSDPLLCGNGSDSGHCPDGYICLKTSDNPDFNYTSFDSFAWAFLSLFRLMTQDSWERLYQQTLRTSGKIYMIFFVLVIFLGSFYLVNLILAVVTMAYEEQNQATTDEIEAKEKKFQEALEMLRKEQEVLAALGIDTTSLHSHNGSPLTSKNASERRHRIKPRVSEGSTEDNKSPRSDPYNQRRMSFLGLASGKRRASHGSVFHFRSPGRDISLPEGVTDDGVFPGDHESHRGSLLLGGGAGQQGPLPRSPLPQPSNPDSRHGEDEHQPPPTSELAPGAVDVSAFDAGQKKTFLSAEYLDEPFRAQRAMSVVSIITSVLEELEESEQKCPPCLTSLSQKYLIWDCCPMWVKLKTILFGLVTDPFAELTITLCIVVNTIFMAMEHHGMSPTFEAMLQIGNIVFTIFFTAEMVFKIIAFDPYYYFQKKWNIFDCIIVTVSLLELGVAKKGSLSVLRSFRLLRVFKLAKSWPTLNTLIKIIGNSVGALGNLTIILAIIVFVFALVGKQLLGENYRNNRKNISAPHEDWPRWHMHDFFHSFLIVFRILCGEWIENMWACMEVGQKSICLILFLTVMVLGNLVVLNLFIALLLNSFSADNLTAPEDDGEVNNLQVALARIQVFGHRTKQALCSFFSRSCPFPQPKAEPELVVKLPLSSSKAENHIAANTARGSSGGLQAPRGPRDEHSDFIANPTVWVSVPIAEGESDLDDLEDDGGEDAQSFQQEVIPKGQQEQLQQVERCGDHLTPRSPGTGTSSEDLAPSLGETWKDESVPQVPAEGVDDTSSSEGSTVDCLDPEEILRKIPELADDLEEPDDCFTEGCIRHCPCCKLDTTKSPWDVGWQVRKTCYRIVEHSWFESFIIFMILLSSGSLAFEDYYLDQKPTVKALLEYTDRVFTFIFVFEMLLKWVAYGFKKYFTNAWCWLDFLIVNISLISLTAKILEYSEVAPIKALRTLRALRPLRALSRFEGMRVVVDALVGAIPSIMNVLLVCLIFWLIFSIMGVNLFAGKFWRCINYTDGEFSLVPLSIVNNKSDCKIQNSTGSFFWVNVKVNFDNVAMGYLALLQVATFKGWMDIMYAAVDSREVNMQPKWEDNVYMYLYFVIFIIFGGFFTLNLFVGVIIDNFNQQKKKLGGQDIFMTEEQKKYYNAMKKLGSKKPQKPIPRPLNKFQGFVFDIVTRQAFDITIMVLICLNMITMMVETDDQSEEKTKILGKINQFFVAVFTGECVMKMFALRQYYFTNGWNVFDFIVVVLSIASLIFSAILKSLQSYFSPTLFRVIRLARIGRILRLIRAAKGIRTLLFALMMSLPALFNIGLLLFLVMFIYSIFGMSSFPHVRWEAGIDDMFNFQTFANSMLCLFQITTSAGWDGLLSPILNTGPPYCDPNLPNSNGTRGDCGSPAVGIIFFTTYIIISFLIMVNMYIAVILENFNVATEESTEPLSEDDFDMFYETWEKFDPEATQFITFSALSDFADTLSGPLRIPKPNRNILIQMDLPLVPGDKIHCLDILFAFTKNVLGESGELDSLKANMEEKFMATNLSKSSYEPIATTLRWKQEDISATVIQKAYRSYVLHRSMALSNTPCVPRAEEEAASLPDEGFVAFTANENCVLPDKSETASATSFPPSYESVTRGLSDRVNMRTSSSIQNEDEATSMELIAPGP
# Protocol Details: Nav1.8 channel inhibition, estimated IC50 (one or more of: fluorescence inhibition assay, PatchXpress, IonFlux HT automated patch clamp)
# Format: cell-based
# Condition Parameters: HEK293 cells stably expressing hNav1.8; method used per compound not stated; read-out: Activity range (estimated IC50)
pIC50: −log10 of the molar value.
Endpoint Label: pIC50

Molecule: COc1cc(F)ccc1Oc1ncc(OC(F)F)cc1C(=O)Nc1cccc(S(C)(=O)=O)c1 [Example 179]
Endpoint Result: > 6.30
--
Molecule: COc1cc(F)ccc1Oc1ncc(C(F)(F)F)cc1C(=O)Nc1cccc(S(=O)(=O)N(C)C)c1 [Example 10]
Endpoint Result: > 6.30
--
Molecule: CS(=O)(=O)c1cccc(NC(=O)c2cc(C(F)(F)F)cnc2Oc2cc(F)ccc2F)c1 [Example 43]
Endpoint Result: 6.00 to 6.30
--
Molecule: CS(=N)(=O)c1cccc(NC(=O)c2cc(C(F)(F)F)cnc2Oc2ccc(OC(F)F)cc2)c1 (centres unmarked) [Example 59]
Endpoint Result: > 6.30
--
Molecule: COc1cc(NC(=O)c2cc(C(F)(F)F)cnc2Oc2ccc(F)cc2C)ccn1 [Example 109]
Endpoint Result: < 6.00
--
Molecule: Cc1cc(F)ccc1Oc1ncc(C(F)(F)F)cc1C(=O)Nc1cc[nH]c(=O)c1 [Example 110]
Endpoint Result: < 6.00
--
Molecule: O=C(Nc1ccncc1)c1cc(C(F)(F)F)cnc1Oc1ccc(OC(F)(F)F)cc1 [Example 127]
Endpoint Result: > 6.30
--
Molecule: Cc1cc(F)ccc1Oc1ncc(C(F)(F)F)cc1C(=O)Nc1cccc(S(C)(=N)=O)c1 (centres unmarked) [Example 115]
Endpoint Result: > 6.30

###

# Study Target: human Nav1.8 (hNav1.8) ion channel (Homo sapiens)
# Protocol Details: Nav1.8 channel inhibition, estimated IC50 (one or more of: fluorescence inhibition assay, PatchXpress, IonFlux HT automated patch clamp)
# Condition Parameters: HEK293 cells stably expressing hNav1.8; method used per compound not stated; read-out: Activity range (estimated IC50)
pIC50: −log10 of the molar value.
Measured pIC50 values are reported for all entries that follow.
Endpoint Label: pIC50

Molecule: COc1cc(F)ccc1Oc1ncc(C(F)(F)F)cc1C(=O)Nc1ccc(C)nc1
Endpoint Result: < 6.00
--
Molecule: Cc1cc(F)ccc1Oc1cc(C(F)(F)F)ncc1C(=O)Nc1ccnnc1
Endpoint Result: > 6.30
--
Molecule: CS(=O)(=O)c1cccc(NC(=O)c2cc(C(F)(F)F)cnc2Oc2ccc(F)cc2F)c1
Endpoint Result: > 6.30
--
Molecule: CS(=O)(=O)c1cccc(NC(=O)c2cnc(C(F)(F)F)cc2Oc2ccc(OC(F)(F)F)cc2Cl)c1
Endpoint Result: > 6.30
--
Molecule: C[S+]([O-])c1cccc(NC(=O)c2cnc(C(F)(F)F)cc2Oc2ccc(OC(F)(F)F)cc2Cl)c1 (stereo not shown)
Endpoint Result: > 6.30
--
Molecule: CS(=O)(=O)c1ccc(F)c(NC(=O)c2cc(C(F)(F)F)cnc2Oc2ccc(OC(F)(F)F)cc2Cl)c1
Endpoint Result: > 6.30
--
Molecule: CN=S(C)(=O)c1cccc(NC(=O)c2cc(C(F)(F)F)cnc2Oc2ccc(F)cc2C)c1 (stereo not shown)
Endpoint Result: > 6.30
--
Molecule: CN=S(C)(=O)c1cccc(NC(=O)c2cc(C(F)(F)F)cnc2Oc2ccc(OC)cc2OC)c1 (stereo not shown)
Endpoint Result: > 6.30
--
Molecule: CN(C)c1cc(NC(=O)c2cnc(C(F)(F)F)cc2Oc2ccc(OC(F)(F)F)cc2Cl)ccn1
Endpoint Result: < 6.00
--
Molecule: O=C(Nc1ccc[n+]([O-])c1)c1cc(C(F)(F)F)cnc1Oc1ccc(OC(F)(F)F)cc1
Endpoint Result: > 6.30
--
Molecule: CS(=N)(=O)c1cccc(NC(=O)c2cc(C(F)(F)F)cnc2Oc2ccc(F)cc2Cl)c1 (stereo not shown)
Endpoint Result: > 6.30
--
Molecule: CS(=O)(=O)c1cccc(NC(=O)c2cc(C(F)(F)F)cnc2Oc2ccc(OC(F)(F)F)cc2Cl)c1
Endpoint Result: > 6.30
--
Molecule: COc1cc(F)ccc1Oc1ncc(C(F)(F)F)cc1C(=O)Nc1cccc(-c2cnco2)c1
Endpoint Result: < 6.00
--
Molecule: COc1cc(F)ccc1Oc1ncc(C(F)(F)F)cc1C(=O)Nc1cccc([S+](C)[O-])c1 (stereo not shown)
Endpoint Result: > 6.30
--
Molecule: Cc1cc(OC(F)(F)F)ccc1Oc1ncc(C(F)(F)F)cc1C(=O)Nc1cccc(S(C)(=O)=O)c1
Endpoint Result: > 6.30
--
Molecule: O=C(Nc1ccnnc1)c1cc(C(F)(F)F)cnc1Oc1ccc(OC(F)F)cc1
Endpoint Result: < 6.00
